test: Organoleptic evaluation of coffee-like thickness in milk coffee with 0.2 ppm γ-Glu-Val-Gly (Example 1); conditions: milk coffee + 0.2 ppm γ-Glu-Val-Gly (control sample = score 0); 1 to 5 seconds after drinking; score 0 to 3; ingredient ppm as in Table 1 c0 (succinic acid 5, proline 12.5, KH2PO4 3, K2HPO4 12.5, L-tartaric acid 6, adipic acid 25, citric acid 3.5, CaCl2 50, MgCl2 12.5, DL-malic acid 3, trisodium citrate 0.8, sodium fumarate 1.5)
Kindly state Coffee-like thickness (middle to aftertaste) for each of the entries shown.
Answers are plain numbers.

O=C(O)CCC(=O)O [Succinic acid]: 2.5
O=C(O)CC(O)(CC(=O)O)C(=O)O [Citric acid, reference compound]: 0
O=P([O-])([O-])O.[K+].[K+] [Dipotassium hydrogenphosphate]: 1.0
O=C(O)[C@@H]1CCCN1 [Proline]: 1.5

Field: Coffee-like thickness (middle to aftertaste). Fill in for each record below.
1. O=C(O)[C@H](O)[C@@H](O)C(=O)O [L-Tartaric acid]
2. O=C([O-])CC(O)(CC(=O)[O-])C(=O)[O-].[Na+].[Na+].[Na+] [Trisodium citrate]
3. O=C(O)CCCCC(=O)O [Adipic acid]

Data returned:
[0, 0, 0]

Field: Coffee-like thickness (middle to aftertaste). Fill in for each record below.
1. O=C([O-])/C=C/C(=O)[O-].[Na+].[Na+] [Sodium fumarate]
2. [Cl-].[Cl-].[Mg+2] [Magnesium chloride]
3. [Ca+2].[Cl-].[Cl-] [Calcium chloride]
4. O=C(O)CC(O)C(=O)O (racemic) [DL-Malic acid]
5. O=P([O-])(O)O.[K+] [Potassium dihydrogenphosphate]

Data returned:
1: 0; 2: 0; 3: 0; 4: 0; 5: 0.5
